Experiment: Binary supramolecular self-assembly systems of polymer and target: guest concentration over incubation time (Comparative Example 2)
Type: physicochemical
Settings: binary system with 0.5% polymer 110; incubation 3 h
Exercise: for every item that follows, state its recorded Concentration of the target in the solution measured after different incubation time.
The reply should contain only the number, in ng/mL.

Quick one: Concentration of the target in the solution measured after different incubation time for COc1cc(/C=C/C(=O)CC(=O)/C=C/c2ccc(O)c(OC)c2)ccc1O [Curcumin] ?
8300

Quick one: Concentration of the target in the solution measured after different incubation time for COC(=O)[C@H](c1ccccc1Cl)N1CCc2sccc2C1 [Clopidogrel, clopidogrel] ?
69300

Quick one: Concentration of the target in the solution measured after different incubation time for CCc1cc2c(cc1N1CCC(N3CCOCC3)CC1)C(C)(C)c1[nH]c3cc(C#N)ccc3c1C2=O [Alectinib, alectinib] ?
1600

Quick one: Concentration of the target in the solution measured after different incubation time for CCCCC1OC(=O)c2ccccc21 (stereo not drawn) [Butylphthalide] ?
253900

Quick one: Concentration of the target in the solution measured after different incubation time for COC1=CC(=O)C[C@@H](C)[C@]12Oc1c(Cl)c(OC)cc(OC)c1C2=O [Griseofulvin, griseofulvin] ?
23600

Quick one: Concentration of the target in the solution measured after different incubation time for CCCNS(=O)(=O)Nc1ncnc(OCCOc2ncc(Br)cn2)c1-c1ccc(Br)cc1 [Macitentan] ?
34700

Quick one: Concentration of the target in the solution measured after different incubation time for CCOc1nc2cccc(C(=O)OC(C)OC(=O)OC3CCCCC3)c2n1Cc1ccc(-c2ccccc2-c2nnn[nH]2)cc1 (stereo not drawn) [Candesartan Cilexetil, candesartan cilexetil] ?
18300

Quick one: Concentration of the target in the solution measured after different incubation time for O=C1C[C@@H](c2ccc(O)cc2)Oc2cc(O)cc(O)c21 [Naringenin] ?
79000

Quick one: Concentration of the target in the solution measured after different incubation time for CC#CC(=O)N1CCC[C@H]1c1nc(-c2ccc(C(=O)Nc3ccccn3)cc2)c2c(N)nccn12 [Acalabrutinib, acalabrutinib] ?
429700

Quick one: Concentration of the target in the solution measured after different incubation time for CNC(=O)c1ccc(N2C(=S)N(c3ccc(C#N)c(C(F)(F)F)c3)C(=O)C2(C)C)cc1F [Enzalutamide] ?
45800

Quick one: Concentration of the target in the solution measured after different incubation time for Cc1ccc(-c2cc(C(F)(F)F)nn2-c2ccc(S(N)(=O)=O)cc2)cc1 [Celecoxib] ?
11100

Quick one: Concentration of the target in the solution measured after different incubation time for CCCSc1nc(N[C@@H]2C[C@H]2c2ccc(F)c(F)c2)c2nnn([C@@H]3C[C@H](OCCO)[C@@H](O)[C@H]3O)c2n1 [Ticagrelor] ?
19200

---

Exercise: for every item that follows, state its recorded Concentration of guest molecule measured after different incubated time.
Assay: Guest molecule concentration after incubation in initial medium without polymer (Comparative Example 1)
Type: physicochemical
Conditions: 3 h; 37° C.; pH 6.8 phosphate buffer
Where a name gives a salt, the structure may show the parent alone.
Don't forget the unit after the value.

Quick one: Concentration of guest molecule measured after different incubated time for COc1ccc(-n2nc(C(N)=O)c3c2C(=O)N(c2ccc(N4CCCCC4=O)cc2)CC3)cc1 [Apixaban] ?
48.7 µg/mL

Quick one: Concentration of guest molecule measured after different incubated time for COc1cc2nccc(Oc3ccc(NC(=O)NC4CC4)c(Cl)c3)c2cc1C(N)=O [Lenvatinib] ?
1.7 µg/mL

Quick one: Concentration of guest molecule measured after different incubated time for O=C1[C@@H]2[C@H]3CC[C@H](C3)[C@@H]2C(=O)N1C[C@@H]1CCCC[C@H]1CN1CCN(c2nsc3ccccc23)CC1 [Lurasidone hydrochloride] ?
10.7 µg/mL

Quick one: Concentration of guest molecule measured after different incubated time for CCCNS(=O)(=O)Nc1ncnc(OCCOc2ncc(Br)cn2)c1-c1ccc(Br)cc1 [Macitentan] ?
33.8 µg/mL
